molecular target: human interleukin-23 receptor (recombinant human IL-23R-Fc chimera) (Homo sapiens, UniProt Q5VWK5); construct: Fc (IgG Fc fusion); test: Human ELISA IL23/IL23R (assay for specific human IL23R antagonists); type: binding; details: Table 10; read-out: Human ELISA IL23/IL23R IC50
Starred links: 1 amine or outer side, 2 acyl side, 3 side chain; linkers in the order of their positions; H or OH if unused. Positions of bridges follow the written chain, without caps; N, C: chain ends. Non-standard residues stand in square brackets, D forms with d. Residues, ends and D or L forms follow the SMILES beside them. *: point of attachment. X3 = CN(CCCCC(=O)N[C@@H](CS[*:2])C(=O)[*:1])[*:3]; Trp(7-Me) = Cc1cccc2c(C[C@H](N)C(=O)O)c[nH]c12; X1 = O=C(CCCCN[*:3])N[C@@H](CS[*:2])C(=O)[*:1]; 2Nal = N[C@@H](Cc1ccc2ccccc2c1)C(=O)O; AEF = NCCOc1ccc(C[C@H](N)C(=O)O)cc1; 3Pal = N[C@@H](Cc1cccnc1)C(=O)O; αMeL = CC(C)C[C@](C)(N)C(=O)O; Suc = O=C(CCC(=O)[*:2])[*:1]; Thp = NC1(C(=O)O)CCOCC1; Me2NCH2CH2 = CN(C)CC*; Aib = CC(C)(N)C(=O)O; Sar = CNCC(=O)O
Would you mind telling me the reported pIC50 of each entry?
Numbers only, as −log10 of the molar value.

CC(=O)N[C@H]1CCCCNC(=O)[C@@H]2CSSC[C@H](NC(=O)[C@H](CCC(N)=O)NC(=O)[C@H](Cc3c[nH]c4ccccc34)NC1=O)C(=O)N[C@@H](Cc1ccc(OCCN)cc1)C(=O)N[C@@H](Cc1ccc3ccccc3c1)C(=O)N[C@@](C)(CC(C)C)C(=O)N[C@H](C(=O)N[C@@H](C)C(=O)N[C@H](CC(C)C)C(N)=O)CCC(=O)N(C)CCCCC(=O)N2 [compound 44] (Ac-KWQC[AEF][2Nal][αMeL]EA[dL]-NH2; linker 1-4-8 via X3): 8.94
CC(=O)NCCCC[C@@H]1NC(=O)[C@H](Cc2c[nH]c3c(C)cccc23)NC(=O)[C@H]([C@@H](C)O)NC(=O)[C@H](CC(N)=O)NC(=O)[C@@H]2CSSC[C@H](NC1=O)C(=O)N[C@@H](Cc1ccc(OCCN(C)C)cc1)C(=O)N[C@@H](Cc1ccc3ccccc3c1)C(=O)N[C@@](C)(CC(C)C)C(=O)N[C@H](C(=O)N[C@@H](CC(N)=O)C(=O)N[C@@H](Cc1c[nH]cn1)C(N)=O)CCCCNC(=O)CCC(=O)N2 [compound 23] (CNT[Trp(7-Me)]K(Ac)CY(Me2NCH2CH2)[2Nal][αMeL]KNH-NH2; disulfide 1-6; linker N-10 via Suc): 9.59
CC(=O)NCCCC[C@@H]1NC(=O)[C@H](Cc2c[nH]c3c(C)cccc23)NC(=O)[C@@H](NC(C)=O)CCCCNC(=O)[C@@H]2CSSC[C@H](NC1=O)C(=O)N[C@@H](Cc1ccc(OCCN(C)C)cc1)C(=O)N[C@@H](Cc1ccc3ccccc3c1)C(=O)NC1(CCOCC1)C(=O)N[C@H](C(=O)N[C@@H](CC(N)=O)C(=O)N[C@@H](Cc1cccnc1)C(=O)N(C)CC(N)=O)CCC(=O)NCCCCC(=O)N2 [compound 66] (Ac-K[Trp(7-Me)]K(Ac)CY(Me2NCH2CH2)[2Nal][Thp]EN[3Pal][Sar]-NH2; linker 1-4-8 via X1): 9.28

# input for lookup
Q: Give its pIC50 value. Item: CC(=O)NCCCC[C@@H]1NC(=O)[C@H](Cc2c[nH]c3c(C)cccc23)NC(=O)[C@@H](NC(C)=O)CCCCNC(=O)[C@@H]2CSSC[C@H](NC1=O)C(=O)N[C@@H](Cc1ccc(OCCN(C)C)cc1)C(=O)N[C@@H](Cc1ccc3ccccc3c1)C(=O)NC(C)(C)C(=O)N[C@H](C(=O)N[C@@H](CC(N)=O)C(=O)N[C@@H](Cc1cccnc1)C(=O)N(C)CC(N)=O)CCC(=O)NCCCCC(=O)N2 [compound 72] (Ac-K[Trp(7-Me)]K(Ac)CY(Me2NCH2CH2)[2Nal][Aib]EN[3Pal][Sar]-NH2; linker 1-4-8 via X1)
A: 9.23

Provenance of the data: patent US20260258084A1
